Provenance of the data: patent US8461120B2

- Tested on: IFNg
- PROTOCOL SUMMARY: Suppression of pro-inflammatory responses in isolated cells: IFNg
- Assay type: cell-based
- APPLIED CONDITIONS: read-out: IFNg (% control) at 8 μM
MEASURED ATTRIBUTE: activity at 8 µM (%)
Answer with a number only, understood to be in %.

Example cases with answers are listed next.
{"MOLECULE": "CCCCCCCCNCC(O)CN(C)C1C[C@@H](C)O[C@@H](O[C@@H]2[C@@H](C)[C@H](O[C@H]3C[C@@](C)(OC)[C@@H](O)[C@H](C)O3)[C@@H](C)C(=O)O[C@H](CC)[C@@](C)(O)[C@H](O)[C@@H](C)N(C)C[C@H](C)C[C@@]2(C)O)[C@@H]1O (stereo partly shown)", "STUDY TARGET": "IFNg", "UNIT TEXT": "%", "activity at 8 µM": 4.4}
{"MOLECULE": "CC[C@H]1OC(=O)[C@H](C)[C@@H](OC2C[C@@](C)(OC)[C@@H](O)[C@H](C)O2)C[C@@H](OC2O[C@H](C)C[C@H](N(C)CC(O)CNc3ncc(C)s3)[C@H]2O)[C@](C)(O)C[C@@H](C)C(=O)[C@H](C)[C@@H](O)[C@]1(C)O (stereo partly shown)", "STUDY TARGET": "IFNg", "UNIT TEXT": "%", "activity at 8 µM": 4.3}
{"MOLECULE": "CC[C@H]1OC(=O)[C@H](C)C2(O)O[C@@](C)(C[C@@H](C)CN(C)[C@H](C)[C@@H](O)[C@]1(C)O)[C@H](O[C@@H]1O[C@H](C)CC(N(C)CC(O)COC(=O)c3cnc4ccccc4c3)C1O)[C@H]2C (stereo partly shown)", "STUDY TARGET": "IFNg", "UNIT TEXT": "%", "activity at 8 µM": 88.8}

Problem: Output measured activity at 8 µM for this item: CCCCC(CC)CNCC(O)CN(C)C1C[C@@H](C)O[C@@H](O[C@@H]2[C@@H](C)[C@H](O[C@H]3C[C@@](C)(OC)[C@@H](O)[C@H](C)O3)[C@@H](C)C(=O)O[C@H](CC)[C@@](C)(O)[C@H](O)[C@@H](C)N(C)C[C@H](C)C[C@@]2(C)O)[C@@H]1O (stereo partly shown)
Solution: 3.8
